target-entity: human cloned 5-HT6 receptors (Homo sapiens, UniProt P50406)
Construct: expressed in transfected cells; host or cells: Hela cells
Sequence (P50406 whole entry): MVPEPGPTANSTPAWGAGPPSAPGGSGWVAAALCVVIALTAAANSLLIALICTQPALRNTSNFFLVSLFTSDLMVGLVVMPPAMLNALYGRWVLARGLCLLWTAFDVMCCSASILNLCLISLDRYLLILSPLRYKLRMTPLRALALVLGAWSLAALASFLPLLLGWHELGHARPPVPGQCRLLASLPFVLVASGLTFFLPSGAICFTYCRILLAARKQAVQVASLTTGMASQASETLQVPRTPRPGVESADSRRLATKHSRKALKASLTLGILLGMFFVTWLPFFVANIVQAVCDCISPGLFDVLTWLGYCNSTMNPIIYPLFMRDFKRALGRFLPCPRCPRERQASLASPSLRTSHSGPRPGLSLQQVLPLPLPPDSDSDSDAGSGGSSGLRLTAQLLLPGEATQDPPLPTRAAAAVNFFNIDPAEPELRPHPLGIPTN
measurement-notes: Comparative evaluation of 5-HT6 binding affinity ([3H]-LSD displacement, Hela cell membranes)
experimental-conditions: [3H]-LSD 3.0 nM; membranes of Hela cells expressing human cloned 5-HT6 receptors; 120 min, room temperature; read-out: 5-HT6 Binding Ki
Where a name gives a salt, the structure may show the parent alone.
metric: pKi
Numbers only, as −log10 of the molar value.

Solved entries:
[[record]]
molecule = "O=S(=O)(c1cccc2ccccc12)n1cc(CC2CCNCC2)c2cc(F)ccc21 [Example 10, hydrochloride]"
metric = "pKi"
reported_result = 7.89

[[record]]
molecule = "O=S(=O)(c1ccccc1)n1cc(CC2CCNCC2)c2cc(F)ccc21 [Example 6, hydrochloride]"
metric = "pKi"
reported_result = 7.92

[[record]]
molecule = "O=S(=O)(c1ccccc1Cl)n1cc(CC2CCNCC2)c2ccc(F)cc21 [Example 24]"
metric = "pKi"
reported_result = 7.89

[[record]]
molecule = "CN1CCN(C2=Nc3ccccc3Oc3ccc(Cl)cc32)CC1 [Loxapine, reference compound]"
metric = "pKi"
reported_result = 7.38

[[record]]
molecule = "O=S(=O)(c1cccc2ccccc12)n1cc(CC2CCNCC2)c2ccc(F)cc21 [Example 22]"
metric = "pKi"
reported_result = 7.62


Pending molecule:
Check human cloned 5-HT6 receptors (Homo sapiens, UniProt P50406) data and give pKi for COc1ccc(S(=O)(=O)n2cc(CC3CCNCC3)c3ccc(F)cc32)cc1OC [Example 23] .
7.72
